Test system: SR
Experiment: NCI tumour cell line growth inhibition, 48 h
Activity calls are given as the source filed them. No stated cut-off is given here; in the data, active = GI50 up to about 1.1 µM and inactive = higher.
Possible outcomes: active, inactive

1. C=CCOC(C)n1c(C)c(Br)c(=O)[nH]c1=O (configuration not stated) : inactive
2. CC(=O)OC1CC2C(C)(C)C(=O)C=C[C@]2(C)C2CCC3(C)C(=CCC3[C@H](CO)C[C@H](O)C(=O)C(C)(C)O)[C@]12C (some centres not stated) : inactive
3. O=C(O)C(=Cc1ccnc2ccccc12)C(=O)O : inactive
4. Cn1c([N+](=O)[O-])cnc1CN1CCN(CCO)CC1 : inactive
5. CC(C)=CCC[C@@H](C)C1=C(O)C(=O)C(C)=C(Nc2ccccc2Br)C1=O : inactive
6. Cc1cc(C)cc(Nc2nnc3n2S(=O)(=O)c2cc(C)c(Cl)cc2S3)c1 : inactive
7. COc1ccc(C(=O)C=C2NCCN2)cc1 : inactive
8. O=C(/C=C\c1cccc2ccccc12)c1cccc2ccccc12 : inactive
9. N#Cc1c(-c2cccc(Cl)c2)cc(-c2ccc(Cl)cc2)nc1N : inactive
10. COc1ccc(Nc2nc(NNC(=O)Cc3ccccc3)nc(NNC(=O)c3ccncc3)n2)cc1 : inactive
11. c1ccc(C2=Nc3cccc4cccc(c34)N2)cc1 : inactive
12. NCC(=O)NC1(c2cc3ccccc3s2)CCCCC1 : active

----------
Tested on: NCI-H460
Test: NCI tumour cell line growth inhibition, 48 h
The source made the active and inactive calls. No stated cut-off is given here; in the data, active = GI50 up to about 1.1 µM and inactive = higher.
Possible outcomes: active, inactive

1) n1onc2c1NC1Nc3nonc3NC1N2 (stereo unspecified) : inactive
2) c1ccc2cc(CNCCOCCOCCNCc3ccc4ccccc4c3)ccc2c1 : inactive
3) O=C(N[C@H]1c2ccsc2/C(=N/O)[C@H]1O)C(F)(F)F : inactive
4) c1ccc(C2=Nc3cccc4cccc(c34)N2)cc1 : inactive
5) Cc1cc(S(=O)(=O)Nc2nc3ccccc3[nH]2)c(S)cc1Cl : inactive
6) CS(=O)(=O)Sc1ccc(Cl)cc1 : inactive
7) CCSc1nc(N2CCCC2)s[s+]1.[O-][Cl+3]([O-])([O-])[O-] : active
8) C=C1C[C@@H](O)[C@@H](Br)C(C)(C)[C@]12CCC(C)(Br)C(Cl)C2 (stereo partly specified) : inactive
9) Cc1cccc2c(=O)c3cccc([C@H](C)C(=O)O)c3oc12 : inactive
10) O=C(Nc1nnc(-c2ccc(Cl)cc2)o1)C(SC(=S)N1CCOCC1)c1ccccc1 (stereo unspecified) : inactive
11) NCc1cc(O)c(O)c(O)c1 : inactive

----------
GI50 values for the compounds below.
Test system: Hs-578T
Experiment: NCI tumour cell line growth inhibition, 48 h
Calls of active or inactive are those of the source. Cut-off read from the data, not from the text of the source: active = GI50 up to about 1.1 µM and inactive = higher.
measured_quantity: GI50

1. CCC1=CC(OCc2ccccc2)C(CCN(Cc2ccccc2)C(=O)OCc2ccccc2)C1 (centres undefined) : 11.5 µM (inactive)
2. O=c1[nH]c2ccccc2c(=O)n1/N=C/c1ccc(O)cc1 : 31.7 µM (inactive)
3. CC(C)NC(=O)OCc1c(COC(=O)NC(C)C)c(-c2cc[n+](COC(=O)C(C)(C)C)cc2)n2c1CCC2 : > 100 µM (inactive)
4. CN1C(=S)C(c2ccccc2)Sc2ccccc21 (centres undefined) : 35.6 µM (inactive)
5. Cc1[nH]c2ncn(/N=C/c3ccccc3)c(=N)c2c1Cc1ccccc1 : > 100 µM (inactive)
6. CC(C)(C)OC(=O)C1/C(=C/CBr)CN1C(=O)OC(C)(C)C (centres undefined) : 22 µM (inactive)
7. CC1(CC(=O)O)OC2CCCCCC2O1.NCc1ccccc1 (centres undefined) : > 100 µM (inactive)
8. COc1cc(C2SCC(=O)N2c2ccc(Cl)cc2)cc(OC)c1OC (centres undefined) : > 100 µM (inactive)
9. Cc1cc(C)cc(Nc2nnc3n2S(=O)(=O)c2cc(C)c(Cl)cc2S3)c1 : 2.94 µM (inactive)
10. O=C(N[C@H]1c2ccsc2/C(=N/O)[C@H]1O)C(F)(F)F : > 100 µM (inactive)
11. N#Cc1nc(/C=C/c2cccnc2)oc1N : > 100 µM (inactive)
12. O=C(Cn1nc(Br)c(Br)c1Br)c1ccccc1 : 44.1 µM (inactive)
13. COc1cc(C2S/C(=C/c3ccccc3)C(=O)N2c2ccccn2)cc(OC)c1OC (centres undefined) : 20.2 µM (inactive)
14. CC(=O)OC1C2CCC3C(C)(O)C4CC(O)C(C)(C)C4(O)C(O)CC13CC2(C)O (centres undefined) : > 100 µM (inactive)
